These data points were gathered from the supplement of paper PMC6757056.

B1: library; a variant is named by its letters at N, in order (parent)
chain: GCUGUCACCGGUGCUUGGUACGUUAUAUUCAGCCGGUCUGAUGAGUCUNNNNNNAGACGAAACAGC

# Variants of: B1
# MEASUREMENT_DESCRIPTION: normalized RNA/DNA level without ligand (relative to sTRSVctl = 100) (log10 (% of sTRSVctl)); HEK293T overexpressing SLC46A1; higher = less ribozyme self-cleavage, higher mRNA level
# APPLIED_CONDITIONS: without (6R,S)-folinic acid; ligand present: no
variants and their reported normalized RNA/DNA level without ligand (log10)
Returns: the value as a bare number; no unit string appended.

Would you please look over these solved cases?
CONSTRUCT_SEQUENCE	VALUE_MEASURED
GCUGUCACCGGUGCUUGGUACGUUAUAUUCAGCCGGUCUGAUGAGUCUCGGAAAAGACGAAACAGC [CGGAAA]	1.93
GCUGUCACCGGUGCUUGGUACGUUAUAUUCAGCCGGUCUGAUGAGUCUAAUAUAAGACGAAACAGC [AAUAUA]	1.95
GCUGUCACCGGUGCUUGGUACGUUAUAUUCAGCCGGUCUGAUGAGUCUGCUCCCAGACGAAACAGC [GCUCCC]	2.06

INPUT: Recall and state the measured normalized RNA/DNA level without ligand (log10) for GCUGUCACCGGUGCUUGGUACGUUAUAUUCAGCCGGUCUGAUGAGUCUCCUACUAGACGAAACAGC [CCUACU] .
OUTPUT: 2.06

INPUT: Input GCUGUCACCGGUGCUUGGUACGUUAUAUUCAGCCGGUCUGAUGAGUCUGAACCGAGACGAAACAGC [GAACCG] , output reported normalized RNA/DNA level without ligand (log10).
OUTPUT: 2.02

INPUT: Provide normalized RNA/DNA level without ligand (log10) value for the following variant: GCUGUCACCGGUGCUUGGUACGUUAUAUUCAGCCGGUCUGAUGAGUCUCUAUCUAGACGAAACAGC [CUAUCU]
OUTPUT: 2.04

INPUT: Tell me normalized RNA/DNA level without ligand (log10) reported for GCUGUCACCGGUGCUUGGUACGUUAUAUUCAGCCGGUCUGAUGAGUCUGAGUCGAGACGAAACAGC [GAGUCG]
OUTPUT: 1.98

INPUT: Return value of normalized RNA/DNA level without ligand (log10) for input GCUGUCACCGGUGCUUGGUACGUUAUAUUCAGCCGGUCUGAUGAGUCUGCAGGGAGACGAAACAGC [GCAGGG] , no commentary.
OUTPUT: 1.98

INPUT: Read the entry GCUGUCACCGGUGCUUGGUACGUUAUAUUCAGCCGGUCUGAUGAGUCUCGUCUGAGACGAAACAGC [CGUCUG] and write its reported normalized RNA/DNA level without ligand (log10).
OUTPUT: 2.01

INPUT: Report measured normalized RNA/DNA level without ligand (log10); entry is GCUGUCACCGGUGCUUGGUACGUUAUAUUCAGCCGGUCUGAUGAGUCUUAACUAAGACGAAACAGC [UAACUA]
OUTPUT: 1.98

INPUT: Give the reported normalized RNA/DNA level without ligand (log10) for this variant. GCUGUCACCGGUGCUUGGUACGUUAUAUUCAGCCGGUCUGAUGAGUCUCCGGUCAGACGAAACAGC [CCGGUC]
OUTPUT: 2.07

INPUT: Could you please provide reported normalized RNA/DNA level without ligand (log10) for GCUGUCACCGGUGCUUGGUACGUUAUAUUCAGCCGGUCUGAUGAGUCUUCAACCAGACGAAACAGC [UCAACC] ? Thanks!
OUTPUT: 2.04

INPUT: Answer with reported normalized RNA/DNA level without ligand (log10) of GCUGUCACCGGUGCUUGGUACGUUAUAUUCAGCCGGUCUGAUGAGUCUCCCAAGAGACGAAACAGC [CCCAAG]
OUTPUT: 1.93

INPUT: // Input: GCUGUCACCGGUGCUUGGUACGUUAUAUUCAGCCGGUCUGAUGAGUCUAGCAGCAGACGAAACAGC [AGCAGC] . Output its normalized RNA/DNA level without ligand (log10) only.
OUTPUT: 2.03

INPUT: Tell me normalized RNA/DNA level without ligand (log10) reported for GCUGUCACCGGUGCUUGGUACGUUAUAUUCAGCCGGUCUGAUGAGUCUUCCGUUAGACGAAACAGC [UCCGUU]
OUTPUT: 2.05

INPUT: // fetch normalized RNA/DNA level without ligand (log10) given entry GCUGUCACCGGUGCUUGGUACGUUAUAUUCAGCCGGUCUGAUGAGUCUUGCCUGAGACGAAACAGC [UGCCUG]
OUTPUT: 1.87

INPUT: Given the variant GCUGUCACCGGUGCUUGGUACGUUAUAUUCAGCCGGUCUGAUGAGUCUCAUUUCAGACGAAACAGC [CAUUUC] , write its reported normalized RNA/DNA level without ligand (log10).
OUTPUT: 2.04

INPUT: Tell me normalized RNA/DNA level without ligand (log10) reported for GCUGUCACCGGUGCUUGGUACGUUAUAUUCAGCCGGUCUGAUGAGUCUGCCAAUAGACGAAACAGC [GCCAAU]
OUTPUT: 2

INPUT: Please look at this variant and report its normalized RNA/DNA level without ligand (log10): GCUGUCACCGGUGCUUGGUACGUUAUAUUCAGCCGGUCUGAUGAGUCUAGAGUCAGACGAAACAGC [AGAGUC]
OUTPUT: 2.06

INPUT: Please report normalized RNA/DNA level without ligand (log10) for the following variant: GCUGUCACCGGUGCUUGGUACGUUAUAUUCAGCCGGUCUGAUGAGUCUGUGGCAAGACGAAACAGC [GUGGCA]
OUTPUT: 2.01

INPUT: Supply measured normalized RNA/DNA level without ligand (log10) of GCUGUCACCGGUGCUUGGUACGUUAUAUUCAGCCGGUCUGAUGAGUCUUUAACGAGACGAAACAGC [UUAACG] in your reply.
OUTPUT: 1.93

INPUT: // fetch normalized RNA/DNA level without ligand (log10) given entry GCUGUCACCGGUGCUUGGUACGUUAUAUUCAGCCGGUCUGAUGAGUCUCACUGCAGACGAAACAGC [CACUGC]
OUTPUT: 2.06
